system: A549 human adenocarcinoma tumor cells; assay: Microtubule bundling patterns in tumor cells by immunofluorescence; format: cell-based; set-up: key: −: no effect; +/−: minimal or questionable effect; +: weak effect; ++: strong effect; +++: very strong effect equivalent to discodermolide; conditions: subjective rating versus discodermolide, Table 12
QUANTITY: Microtubule bundling in A549 cells

Here is how some molecules turned out for Microtubule bundling in A549 cells.
>>> assay_value("CCCCC(C)C(OC(N)=O)C(C)C(O)C(C)CC(C)=CC(C)C(O)C(C)CCC(O)CC1OC(=O)C(C)C(O)C1C (stereo not drawn) [8,21,23-Hexahydrodiscodermolide (XII), 8,21,23-hexahydrodiscodermolide]")
"++"
>>> assay_value("CCCCC(C)C(OC(N)=O)C(C)C(O)C(C)CC(C)=CC(C)C(O)C(C)CCCCC1OC(=O)C(C)C(O)C1C (stereo not drawn) [7-deoxy-8,21,23-hexahydrodiscodermolide]")
"++"
>>> assay_value("C=CC=CC(C)C(OC(N)=O)C(C)C(OC(C)=O)C(C)CC(C)=CC(C)C(OC(C)=O)C(C)C=CC(O)CC1OC(=O)C(C)=CC1C (stereo not drawn)")
"−"
>>> assay_value("CCCCC(C)C(OC(N)=O)C(C)C(OC(C)=O)C(C)CC(C)=CC(C)C(OC(C)=O)C(C)CCCCC1OC(=O)C(C)C(OC(C)=O)C1C (stereo not drawn)")
"−"
>>> assay_value("C=CC=CC(C)C(OC(N)=O)C(C)C(OC(C)=O)C(C)CC(C)=CC(C)C(OC(C)=O)C(C)C=CC(CC1OC(=O)C(C)=CC1C)OC(C)=O (stereo not drawn)")
"−"

Qu. Write down the reported Microtubule bundling in A549 cells (system: A549 human adenocarcinoma tumor cells) of C=CC=CC(C)C(OC(N)=O)C(C)C(O)C(C)CC(C)=CC(C)C(O)C(C)C=CC(CC1OC(=O)C(C)=CC1C)OC(=O)CCC(=O)O (stereo not drawn) [3-deoxy-2Δ-discodermolide-7-succinate]
Ans. −

Qu. // output Microtubule bundling in A549 cells; input C=CC=CC(C)C(OC(N)=O)C(C)C(O)C(C)CC(C)=CC(C)C(O)C(C)C=CC(O)CC1OC(=O)C(C)=CC1C (stereo not drawn) [3-Deoxy-2Δ-discodermolide (VI), 3-deoxy-2Δ-discodermolide] ; system A549 human adenocarcinoma tumor cells
Ans. +++

Qu. Write Microtubule bundling in A549 cells of C=CC=CC(C)C(OC(N)=O)C(C)C(OC(C)=O)C(C)CC(C)=CC(C)C(O)C(C)C=CC(O)CC1OC(=O)C(C)=CC1C (stereo not drawn) [3-deoxy-2Δ-discodermolide-17-acetate] ; system used: A549 human adenocarcinoma tumor cells
Ans. −

Qu. Give measured Microtubule bundling in A549 cells for C=CC=CC(C)C(OC(N)=O)C(C)C(O)C(C)CC(C)=CC(C)C(OC(C)=O)C(C)C=CC(O)CC1OC(=O)C(C)=CC1C (stereo not drawn) [3-Deoxy-2Δ-discodermolide-11-acetate (X), 3-deoxy-2Δ-discodermolide-11-acetate] (A549 human adenocarcinoma tumor cells).
Ans. −
